run-description: in vitro
Type: in vitro ADME
condition-notes: human, Caco-2, pH 7.2, Caco-2, apical-to-basal, pH 7.2, 37° C.; read-out: PEAB

| molecule | Papp A→B at 10 μM (×10⁻⁶ cm/s) |
| --- | --- |
| CCS(=O)(=O)c1cc(C#N)ccc1C1C2=C(CCC2=O)N(c2ccnc(C(F)(F)F)c2)C(=O)N1C (single isomer, unassigned) | 21 |
| CCNC(=O)N1C(=O)N(c2ccnc(C(F)(F)F)c2)C2=C(C(=O)CC2)C1c1ccc(C#N)cc1S(=O)(=O)CC (single isomer, unassigned) | 3.6 |
| CC(O)c1cc(C#N)ccc1C1C2=C(CCC2=O)N(c2cccc(C(F)(F)F)c2)C(=O)N1C (centres unmarked) | 67 |
| CN1C(=O)N(c2ccnc(C(F)(F)F)c2)C2=C(C(=O)CC2)C1c1ccc(C#N)cc1S(C)(=O)=O (single isomer, unassigned) | 19 |
| CNC(=O)N1C(=O)N(c2cc(C(F)(F)F)ccn2)C2=C(C(=O)CC2)C1c1ccc(C#N)cc1S(C)(=O)=O (centres unmarked) | 3.1 |

---

Test system: Caco-2 cells
run-description: in vitro
Assay type: in vitro ADME
condition-notes: pH 7.2
Entries and their PEAB

| molecule | PEAB / ×10⁻⁶ cm/s |
| --- | --- |
| CN1C(=O)N(c2cccc(C(F)(F)F)c2)C2=C(C(=O)CC2)[C@H]1c1ccc(C#N)cc1[S+](C)[O-] (single isomer, unassigned) [Example C.2A] | 13 |
| CN1C(=O)N(c2cccc(C(F)(F)F)c2)C2=C(C(=O)CC2)[C@H]1c1ccc(C#N)cc1[S+](C)[O-] (single isomer, unassigned) [Example C.1B] | 3.7 |
| CC[S+]([O-])c1cc(C#N)ccc1C1C2=C(CCC2=O)N(c2cccc(C(F)(F)F)c2)C(=O)N1C (single isomer, unassigned) [Example C.5.1] | 7.1 |
| CC[S+]([O-])c1cc(C#N)ccc1C1C2=C(CCC2=O)N(c2cccc(C(F)(F)F)c2)C(=O)N1C (single isomer, unassigned) [Example C.5.2] | 16 |

---

run-description: Metabolic stability with human liver microsomes
Type: in vitro ADME
condition-notes: human, pooled human liver microsomes, pH 7.6, pooled human liver microsomes, 1 μM test compound, 37° C.; read-out: t1/2 INVITRO
Entries and their half-life at 1 μM

| compound | half-life at 1 μM |
| --- | --- |
| CNC(=O)N1C(=O)N(c2cc(C(F)(F)F)ccn2)C2=C(C(=O)CC2)C1c1ccc(C#N)cc1S(C)(=O)=O (stereo not drawn) [D.4.4] | > 2.17 h |
| CCNC(=O)N1C(=O)N(c2ccnc(C(F)(F)F)c2)C2=C(C(=O)CC2)C1c1ccc(C#N)cc1S(=O)(=O)CC (single isomer, unassigned) [Example D.4.1A] | > 2.17 h |
| CN1C(=O)N(c2cccc(C(F)(F)F)c2)C2=C(C(=O)CC2)[C@H]1c1ccc(C#N)cc1S(=O)(=O)CCO [Example B.1.2B] | > 2.17 h |
